Biological target: Serine/threonine-protein kinase 4 (Homo sapiens)
Sequence (whole entry): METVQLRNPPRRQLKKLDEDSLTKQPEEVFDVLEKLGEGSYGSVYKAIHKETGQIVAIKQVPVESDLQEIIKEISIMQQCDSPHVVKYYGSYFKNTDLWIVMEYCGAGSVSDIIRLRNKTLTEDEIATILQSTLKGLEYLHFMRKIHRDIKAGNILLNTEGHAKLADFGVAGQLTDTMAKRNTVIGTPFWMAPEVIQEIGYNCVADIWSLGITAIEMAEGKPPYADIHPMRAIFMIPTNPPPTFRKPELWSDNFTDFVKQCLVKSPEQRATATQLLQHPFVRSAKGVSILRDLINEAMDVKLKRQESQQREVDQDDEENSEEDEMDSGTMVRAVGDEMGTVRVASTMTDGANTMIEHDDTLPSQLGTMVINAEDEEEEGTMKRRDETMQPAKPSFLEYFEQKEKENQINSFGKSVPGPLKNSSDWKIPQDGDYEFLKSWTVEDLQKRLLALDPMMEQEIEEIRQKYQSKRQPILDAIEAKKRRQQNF
Experiment: Inhibition of STK4 (unknown origin) using fluorescein-labelled Ser/Thr-07 peptide as substrate incubated for 1 hr in presence of ATP at Km concentration by Z-LYTE assay
QUANTITY_KIND: IC50 (nM)
Just the number in nM, nothing appended.

Here's what some known entries look like.
[[record]]
structure = "COc1cc(-c2nccs2)ccc1-c1cnc(N)c(-c2ccc3c(c2)CCNC3=O)c1"
quantity_kind = "IC50"
measured = 40

[[record]]
structure = "Nc1ncc(-c2ccc(F)c3ncsc23)cc1-c1ccc2c(c1)CNC2=O"
quantity_kind = "IC50"
measured = 40

[[record]]
structure = "Nc1ncc(-c2ccc([N+](=O)[O-])cc2F)cc1-c1ccc2c(c1)CCNC2=O"
quantity_kind = "IC50"
measured = 40


Now consider the entry below.
Q: Give recorded IC50. NC(=O)c1ccc(-c2cc(-c3cc([N+](=O)[O-])ccc3F)cnc2N)cc1Cl
Ans: 200
